test.method.notes: Cytotoxicity against HUVEC cells assessed as cell viability at 64 ug/ml measured after 24 hrs relative to control
Format: toxicity, cell-based
details: human, at 64 µg/mL, read-out: Activity
recorded.endpoint: viability at 24 h, 64 ug/ml (%)
Write the number in % without appending the unit.

The molecule CCOC(=O)Cn1cc(/C=C(\C#N)C(=O)N2CCN(c3cc4c(cc3F)c(=O)c(C(=O)O)cn4CC)CC2)c2ccccc21 showed viability at 24 h, 64 ug/ml equal to 85

* * *

System: Klebsiella pneumoniae
test.method.notes: Antibacterial activity against Klebsiella pneumonia assessed as inhibition of bacterial growth measured after 24 hrs incubation
Assay type: functional
# TRUE = MIC below 1 µg/mL (exclusive); FALSE = MIC at/above 1 µg/mL

Past entries and their recorded results:
- smiles.input: "CCCCCCCCn1cc(C(=O)O)c(=O)c2cc(F)c(N3CCN(C(=O)/C(C#N)=C/c4cn(CC(=O)OCC)c5ccccc45)CC3)cc21"
  test.target: "Klebsiella pneumoniae"
  class.label: "FALSE"
- smiles.input: "CCCn1cc(/C=C(\\C#N)C(=O)N2CCN(c3cc4c(cc3F)c(=O)c(C(=O)O)cn4CC)CC2)c2ccccc21"
  test.target: "Klebsiella pneumoniae"
  class.label: "TRUE"

I wonder whether CCn1cc(C(=O)O)c(=O)c2cc(F)c(N3CCN(C(=O)/C(C#N)=C/c4cn(CC5CCC5)c5ccccc45)CC3)cc21 has MIC below 1 µg/mL. Can you tell?
TRUE

I wonder whether CCCCn1cc(C(=O)O)c(=O)c2cc(F)c(N3CCN(C(=O)/C(C#N)=C/c4cn(CC(=O)OCC)c5ccccc45)CC3)cc21 has MIC below 1 µg/mL. Can you tell?
FALSE

I wonder whether CCn1cc(C(=O)O)c(=O)c2cc(F)c(N3CCN(C(=O)/C(C#N)=C/c4c[nH]c5ccccc45)CC3)cc21 has MIC below 1 µg/mL. Can you tell?
TRUE

I wonder whether CCn1cc(C(=O)O)c(=O)c2cc(F)c(N3CCNCC3)cc21 has MIC below 1 µg/mL. Can you tell?
TRUE

* * *

test.method.notes: Hemolytic activity in human red blood cells assessed as hemolysis rate at 512 ug/ml relative to control
Type: toxicity, cell-based, Erythrocyte
details: red blood cells (erythrocytes), at 512 µg/mL, read-out: Activity
recorded.endpoint: hemolysis at 512 ug/ml

- smiles.input: "CCn1cc(C(=O)O)c(=O)c2cc(F)c(N3CCN(C(=O)/C(C#N)=C/c4cn(CCO)c5ccccc45)CC3)cc21"
  result: "< 1.8%"

Note: attention shifts to another entry.
The compound CCOC(=O)Cn1cc(/C=C(\C#N)C(=O)N2CCN(c3cc4c(cc3F)c(=O)c(C(=O)O)cn4CC)CC2)c2ccccc21 showed hemolysis at 512 ug/ml equal to < 5%

* * *

Tested on: Klebsiella pneumoniae
test.method.notes: Antibacterial activity against Klebsiella pneumonia assessed as inhibition of bacterial growth measured after 24 hrs incubation
Format: functional
# Satisfied = MIC below 0.5 µg/mL (exclusive); Not satisfied = MIC at/above 0.5 µg/mL

- smiles.input: "C=CCn1cc(/C=C(\\C#N)C(=O)N2CCN(c3cc4c(cc3F)c(=O)c(C(=O)O)cn4CC)CC2)c2ccccc21"
  class.label: "Not satisfied"
- smiles.input: "C=CCn1cc(C(=O)O)c(=O)c2cc(F)c(N3CCN(C(=O)/C(C#N)=C/c4cn(CC(=O)OCC)c5ccccc45)CC3)cc21"
  class.label: "Not satisfied"
- smiles.input: "CCn1cc(C(=O)O)c(=O)c2cc(F)c(N3CCN(C(=O)/C(C#N)=C/c4c(C)[nH]c5ccccc45)CC3)cc21"
  class.label: "Not satisfied"
- smiles.input: "CCn1cc(C(=O)O)c(=O)c2cc(F)c(N3CCN(C(=O)/C(C#N)=C/c4cn(CC(N)=O)c5ccccc45)CC3)cc21"
  class.label: "Not satisfied"
- smiles.input: "CCn1cc(C(=O)O)c(=O)c2cc(F)c(N3CCN(C(=O)/C(C#N)=C/c4cn(Cc5ccccc5F)c5ccccc45)CC3)cc21"
  class.label: "Not satisfied"
- smiles.input: "C#CCn1cc(/C=C(\\C#N)C(=O)N2CCN(c3cc4c(cc3F)c(=O)c(C(=O)O)cn4CC)CC2)c2ccccc21"
  class.label: "Satisfied"
- smiles.input: "CCCCCCn1cc(C(=O)O)c(=O)c2cc(F)c(N3CCN(C(=O)/C(C#N)=C/c4cn(CC(=O)OCC)c5ccccc45)CC3)cc21"
  class.label: "Not satisfied"
- smiles.input: "CCOC(=O)Cn1cc(/C=C(\\C#N)C(=O)N2CCN(c3cc4c(cc3F)c(=O)c(C(=O)O)cn4Cc3ccccc3)CC2)c2ccccc21"
  class.label: "Not satisfied"

Now for another entry.
I wonder whether CCn1cc(C(=O)O)c(=O)c2cc(F)c(N3CCN(C(=O)/C(C#N)=C/c4cn(CC=C(C)C)c5ccccc45)CC3)cc21 has MIC below 0.5 µg/mL. Can you tell?
Satisfied

* * *

Test system: Pseudomonas aeruginosa
test.method.notes: Antibacterial activity against Pseudomonas aeruginosa assessed as inhibition of bacterial growth measured after 24 hrs incubation
Type: functional
Measured log10 MIC accompanies every entry in the list below.
The base-10 logarithm of MIC, taken with MIC in µg/mL, is what appears here.

Some entries whose results are on file:
- smiles.input: "CCCn1cc(/C=C(\\C#N)C(=O)N2CCN(c3cc4c(cc3F)c(=O)c(C(=O)O)cn4CC)CC2)c2ccccc21"
  recorded.endpoint: "log10 MIC"
  result: -0.30
- smiles.input: "CCn1cc(C(=O)O)c(=O)c2cc(F)c(N3CCN(C(=O)/C(C#N)=C/c4c(C)[nH]c5ccccc45)CC3)cc21"
  recorded.endpoint: "log10 MIC"
  result: 0.00
- smiles.input: "CCn1cc(C(=O)O)c(=O)c2cc(F)c(N3CCN(C(=O)/C(C#N)=C/c4cn(Cc5ccccc5)c5ccccc45)CC3)cc21"
  recorded.endpoint: "log10 MIC"
  result: 2.41
- smiles.input: "CCn1cc(C(=O)O)c(=O)c2cc(F)c(N3CCN(C(=O)/C(C#N)=C/c4cn(Cc5cccc(Cl)c5)c5ccccc45)CC3)cc21"
  recorded.endpoint: "log10 MIC"
  result: 1.51
- smiles.input: "CCCCCCn1cc(C(=O)O)c(=O)c2cc(F)c(N3CCN(C(=O)/C(C#N)=C/c4cn(CC(=O)OCC)c5ccccc45)CC3)cc21"
  recorded.endpoint: "log10 MIC"
  result: 0.00

The reported log10 MIC value, Pseudomonas aeruginosa, for CCn1cc(C(=O)O)c(=O)c2cc(F)c(N3CCNCC3)cc21 reads 0.60

The reported log10 MIC value, Pseudomonas aeruginosa, for CCn1cc(C(=O)O)c(=O)c2cc(F)c(N3CCN(C(=O)/C(C#N)=C/c4cn(Cc5ccc(C)cc5)c5ccccc45)CC3)cc21 reads 1.51

The reported log10 MIC value, Pseudomonas aeruginosa, for CCn1cc(C(=O)O)c(=O)c2cc(F)c(N3CCN(C(=O)/C(C#N)=C/c4c[nH]c5cc(F)ccc45)CC3)cc21 reads 0.00

The reported log10 MIC value, Pseudomonas aeruginosa, for CCn1cc(C(=O)O)c(=O)c2cc(F)c(N3CCN(C(=O)/C(C#N)=C/c4cn(Cc5ccc(Cl)c(Cl)c5)c5ccccc45)CC3)cc21 reads 0.30

The reported log10 MIC value, Pseudomonas aeruginosa, for CCn1cc(C(=O)O)c(=O)c2cc(F)c(N3CCN(C(=O)/C(C#N)=C/c4cn(CCCN5CCOCC5)c5ccccc45)CC3)cc21 reads -0.60

The reported log10 MIC value, Pseudomonas aeruginosa, for CCOC(=O)Cn1cc(/C=C(\C#N)C(=O)N2CCN(c3cc4c(cc3F)c(=O)c(C(=O)O)cn4CC=C(C)C)CC2)c2ccccc21 reads 1.20

The reported log10 MIC value, Pseudomonas aeruginosa, for CCn1cc(C(=O)O)c(=O)c2cc(F)c(N3CCN(C(=O)/C(C#N)=C/c4c[nH]c5ccc(Cl)cc45)CC3)cc21 reads 0.30

The reported log10 MIC value, Pseudomonas aeruginosa, for CCCCCCCCn1cc(C(=O)O)c(=O)c2cc(F)c(N3CCN(C(=O)/C(C#N)=C/c4cn(CC(=O)OCC)c5ccccc45)CC3)cc21 reads 1.20

The reported log10 MIC value, Pseudomonas aeruginosa, for CCn1cc(C(=O)O)c(=O)c2cc(F)c(N3CCN(C(=O)/C(C#N)=C/c4cn(Cc5cccc(F)c5)c5ccccc45)CC3)cc21 reads 0.30

The reported log10 MIC value, Pseudomonas aeruginosa, for CCn1cc(C(=O)O)c(=O)c2cc(F)c(N3CCN(C(=O)/C(C#N)=C/c4cn(Cc5ccccc5Cl)c5ccccc45)CC3)cc21 reads 1.20

The reported log10 MIC value, Pseudomonas aeruginosa, for CCOC(=O)Cn1cc(/C=C(\C#N)C(=O)N2CCN(c3cc4c(cc3F)c(=O)c(C(=O)O)cn4CC)CC2)c2ccccc21 reads -0.30

The reported log10 MIC value, Pseudomonas aeruginosa, for CCOC(=O)Cn1cc(/C=C(\C#N)C(=O)N2CCN(c3cc4c(cc3F)c(=O)c(C(=O)O)cn4Cc3ccccc3)CC2)c2ccccc21 reads 2.41

The reported log10 MIC value, Pseudomonas aeruginosa, for CCCCn1cc(C(=O)O)c(=O)c2cc(F)c(N3CCN(C(=O)/C(C#N)=C/c4cn(CC(=O)OCC)c5ccccc45)CC3)cc21 reads 0.60

Data credit: ChEMBL document CHEMBL5512655
